Structures can show the parent of a compound that is named as a salt.
experimental.endpoint: melting point (°C)

{"compound": "CCNC1CCC(N(C)S(=O)(=O)c2ccc(Nc3nccc(Nc4ccc(F)cc4)n3)cc2)CC1 (centres unmarked) [Example 143]", "experimental.endpoint": "melting point", "result.value": 178}

1. CCOP(=O)(CCN1CCC(N(CCN2CCCC2)S(=O)(=O)c2ccc(Nc3nccc(Nc4ccc(F)cc4)n3)cc2)CC1)OCC
2. CN1CCC(N(C2CC2)S(=O)(=O)c2ccc(Nc3nccc(Nc4ccc(F)cc4)n3)cc2)CC1 [Example 14]
3. CSCCNC1CCC(N(C)S(=O)(=O)c2ccc(Nc3nccc(Nc4ccc(F)cc4)n3)cc2)CC1 (centres unmarked) [Example 144]
Request: Ascending by melting point, please. Provide the labels, sequenced as the question asks.
Response: 1, 3, 2

a. C#CCN(C1CCN(C)CC1)S(=O)(=O)c1ccc(Nc2nccc(Nc3ccc(F)cc3)n2)cc1 [Example 148]
b. NCCN(C1CCNCC1)S(=O)(=O)c1ccc(Nc2nccc(Nc3ccc(F)cc3)n2)cc1 (as salt: hydrochloride) [Example 44]
Request: Compare a and b by numeric melting point and name the larger one. Answer = label.
Response: b

====

Counter-ions that a name gives are not always drawn.
experimental.endpoint: melting point (°C)

{"molecule": "CN(C1CCSCC1)S(=O)(=O)c1ccc(Nc2nccc(Nc3ccc(F)cc3)n2)cc1", "melting point [°C]": 181.5}
{"molecule": "COc1cc(Nc2ccnc(Nc3ccc(S(=O)(=O)N(CCN4CCCC4)C4CCN(C5CC5)CC4)cc3)n2)ccc1F", "melting point [°C]": 139}
{"molecule": "CNC1CCC(N(C)S(=O)(=O)c2ccc(Nc3nccc(Nc4ccc(F)cc4)n3)cc2)CC1 (stereo not drawn) [Example 122]", "melting point [°C]": 195}
{"molecule": "Cc1cc(Nc2ccnc(Nc3ccc(S(=O)(=O)N(C)C4CCCN(C)C4)cc3)n2)ccc1F (stereo not drawn)", "melting point [°C]": 188}
{"molecule": "CCOP(=O)(CCN1CCC(N(CC2CCCN2)S(=O)(=O)c2ccc(Nc3nccc(Nc4ccc(F)cc4)n3)cc2)CC1)OCC (stereo not drawn) (as salt: hydrochloride)", "melting point [°C]": 185}

P. O=S(=O)(c1ccc(Nc2nccc(Nc3ccc(F)cc3)n2)cc1)N(CCN1CCCC1)C1CCNCC1 (as salt: hydrochloride)
Q. Cc1cc(CN2CCC(N(C)S(=O)(=O)c3ccc(Nc4nccc(Nc5ccc(F)c(C)c5)n4)cc3)CC2)[nH]n1
Request: API: POST /compare with P and Q ; response names the item with higher melting point. Return value: the label identifying the chosen record.
Response: P

====

Counter-ions that a name gives are not always drawn.
experimental.endpoint: melting point

Some compounds with known melting point results, for comparison:
{"compound": "CN1CCC(N(C)S(=O)(=O)c2ccc(Nc3nccc(Nc4ccc(F)cc4)n3)cc2)C1 (centres unmarked) [Example 5]", "melting point": "177 to 181 °C"}
{"compound": "CN(C1CCNCC1)S(=O)(=O)c1ccc(Nc2nccc(Nc3ccc(F)cc3)n2)cc1 (as salt: hydrochloride) [Example 8]", "melting point": "205 to 210 °C"}
{"compound": "CN(C1CCN(CCC(F)(F)F)CC1)S(=O)(=O)c1ccc(Nc2nccc(Nc3ccc(F)cc3)n2)cc1 [Example 107]", "melting point": "195 to 196 °C"}
{"compound": "Cc1cc(CN2CCC(N(C)S(=O)(=O)c3ccc(Nc4nccc(Nc5ccc(F)c(C)c5)n4)cc3)CC2)no1 [Example 138]", "melting point": "172 to 173 °C"}
{"compound": "CN(C1CCN(Cc2ccccc2)CC1)S(=O)(=O)c1ccc(Nc2nccc(Nc3ccc(F)cc3)n2)cc1 [Example 3]", "melting point": "186 to 190 °C"}
{"compound": "Cc1cc(Nc2ccnc(Nc3ccc(S(=O)(=O)N(C)C4CCN(C)CC4)cc3)n2)ccc1F [Example 86]", "melting point": "110 to 120 °C"}

Lab note: measured melting point of CN(C1CCN(Cc2ccsc2)CC1)S(=O)(=O)c1ccc(Nc2nccc(Nc3ccc(F)cc3)n2)cc1 [Example 16] was 173 to 174 °C

// field: melting point; key: CN(C1CCN(C2CC2)CC1)S(=O)(=O)c1ccc(Nc2nccc(Nc3ccc(F)cc3)n2)cc1 [Example 150] ; value = 125 to 128 °C
